molecular target: b-Raf V600E (Homo sapiens, UniProt P15056, V600E); construct: recombinant human b-Raf residues 416-end containing a V600E mutation; test: b-Raf V600E mutant HTRF assay with 6H-MEK as substrate (dose response); settings: kinase enzyme inhibition, 6H-MEK substrate, read-out: bRaf(V600E) IC50
Sequence (P15056 416-766 V600E): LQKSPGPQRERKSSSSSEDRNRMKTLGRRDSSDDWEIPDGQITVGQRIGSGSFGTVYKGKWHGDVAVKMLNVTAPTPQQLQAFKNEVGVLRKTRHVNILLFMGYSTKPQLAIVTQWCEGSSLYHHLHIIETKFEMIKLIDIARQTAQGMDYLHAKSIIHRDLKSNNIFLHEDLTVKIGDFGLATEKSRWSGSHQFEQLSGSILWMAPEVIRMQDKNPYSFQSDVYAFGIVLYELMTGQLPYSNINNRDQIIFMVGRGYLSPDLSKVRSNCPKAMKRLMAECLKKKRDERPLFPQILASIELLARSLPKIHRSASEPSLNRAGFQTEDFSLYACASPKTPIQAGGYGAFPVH
Quick list: IC50 per entry.

entry_smiles=Cc1ccc(OCc2ccc(Cl)cc2)cc1OCc1nn(C)c2ncnc(N)c12 result="< 10 µM"

Per the record, `Cc1ccc(NC(=O)c2cccc(Cl)c2)cc1OCc1nn(C)c2ncnc(N)c12` has IC50 of < 10 µM

Per the record, `Cn1nc(COc2cccc(OCc3ccccc3)c2)c2c(N)ncnc21` has IC50 of > 10 µM

Per the record, `Cc1ccc(C(=O)Nc2ccc(Cl)cc2)cc1OCc1nn(C)c2ncnc(N)c12` has IC50 of < 10 µM

Per the record, `Cc1ccc(OCc2ccccc2)cc1OCc1nn(C)c2ncnc(N)c12` has IC50 of < 10 µM

Per the record, `Cc1ccc(NC(=O)c2ccc(NCCO)c(Cl)c2)cc1OCc1nn(C)c2ncnc(N)c12` has IC50 of < 10 µM

Per the record, `Cc1noc(-c2ccc(C)c(OCc3nn(C)c4ncnc(N)c34)c2)n1` has IC50 of > 10 µM

Per the record, `Cc1nnc(-c2ccc(C)c(OCc3nn(C)c4ncnc(N)c34)c2)o1` has IC50 of > 10 µM

====

biological target: c-Raf (Homo sapiens, UniProt P04049)
Sequence (P04049 whole entry): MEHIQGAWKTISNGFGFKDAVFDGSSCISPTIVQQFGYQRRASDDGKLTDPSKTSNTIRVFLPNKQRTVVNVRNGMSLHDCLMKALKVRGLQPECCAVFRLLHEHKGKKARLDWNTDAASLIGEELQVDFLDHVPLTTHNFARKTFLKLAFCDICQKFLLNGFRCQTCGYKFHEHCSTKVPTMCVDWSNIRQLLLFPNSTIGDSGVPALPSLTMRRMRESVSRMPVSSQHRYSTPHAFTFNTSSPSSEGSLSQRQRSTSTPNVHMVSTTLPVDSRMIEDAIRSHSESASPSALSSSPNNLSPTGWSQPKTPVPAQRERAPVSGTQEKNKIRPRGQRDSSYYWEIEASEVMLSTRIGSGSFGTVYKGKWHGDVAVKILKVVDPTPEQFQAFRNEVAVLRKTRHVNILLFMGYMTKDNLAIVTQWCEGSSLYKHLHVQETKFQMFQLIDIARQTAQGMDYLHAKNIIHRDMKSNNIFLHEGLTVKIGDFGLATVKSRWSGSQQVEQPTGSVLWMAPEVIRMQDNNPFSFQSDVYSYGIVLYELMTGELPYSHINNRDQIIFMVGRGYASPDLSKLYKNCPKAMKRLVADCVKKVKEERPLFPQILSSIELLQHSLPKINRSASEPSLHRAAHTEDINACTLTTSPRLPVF
pIC50: −log10 of the molar value.
Measured parameter: pIC50

molecule="Cc1ccc(OCc2ccc(Cl)cc2)cc1OCc1nn(C)c2ncnc(N)c12 [Example 19]" assay_system="c-Raf (Homo sapiens, UniProt P04049)" measured_parameter=pIC50 result="> 5.00"
molecule="Cc1ccc(OCc2ccccc2)cc1OCc1nn(C)c2ncnc(N)c12 [Example 15]" assay_system="c-Raf (Homo sapiens, UniProt P04049)" measured_parameter=pIC50 result="> 5.00"
molecule="Cc1ccc(NC(=O)c2cccc(Cl)c2)cc1OCc1nn(C)c2ncnc(N)c12 [Example 11]" assay_system="c-Raf (Homo sapiens, UniProt P04049)" measured_parameter=pIC50 result="> 5.00"
molecule="Cc1noc(-c2ccc(C)c(OCc3nn(C)c4ncnc(N)c34)c2)n1 [Example 13]" assay_system="c-Raf (Homo sapiens, UniProt P04049)" measured_parameter=pIC50 result="> 5.00"

Here's the next entry for you.
Per the record, Cc1nnc(-c2ccc(C)c(OCc3nn(C)c4ncnc(N)c34)c2)o1 [Example 21] has pIC50 of > 5.00

====

Quick list: pIC50 per entry.
target: b-Raf wild-type (Homo sapiens); construct: recombinant human b-Raf residues 416-end with N-terminal GST-tag; purchased Upstate 14-530M; host or cells: baculovirus, Sf21 insect cells; experiment: b-Raf wild-type HTRF assay with 6H-MEK as substrate (dose response); format: biochemical; settings: kinase enzyme inhibition, 6H-MEK substrate, read-out: bRaf wild-type IC50
Sequence (P15056 416-766 limits assumed): as the sequence (P15056 416-766 V600E) above, with E185V counted along it
pIC50: −log10 of the molar value.

compound="Cc1ccc(OCc2ccc(Cl)cc2)cc1OCc1nn(C)c2ncnc(N)c12 [Example 19]" assay_system="b-Raf wild-type (Homo sapiens)" result="> 5.00"
compound="Cc1noc(-c2ccc(C)c(OCc3nn(C)c4ncnc(N)c34)c2)n1 [Example 13]" assay_system="b-Raf wild-type (Homo sapiens)" result="< 5.00"
compound="Cc1ccc(NC(=O)c2ccc(NCCO)c(Cl)c2)cc1OCc1nn(C)c2ncnc(N)c12 [Example 9]" assay_system="b-Raf wild-type (Homo sapiens)" result="> 5.00"
compound="Cc1nnc(-c2ccc(C)c(OCc3nn(C)c4ncnc(N)c34)c2)o1 [Example 21]" assay_system="b-Raf wild-type (Homo sapiens)" result="< 5.00"
compound="Cn1nc(COc2cccc(OCc3ccccc3)c2)c2c(N)ncnc21 [Example 7]" assay_system="b-Raf wild-type (Homo sapiens)" result="< 5.00"

Per the record, Cc1ccc(NC(=O)c2cccc(Cl)c2)cc1OCc1nn(C)c2ncnc(N)c12 [Example 11] has pIC50 of > 5.00

Per the record, Cc1ccc(C(=O)Nc2ccc(Cl)cc2)cc1OCc1nn(C)c2ncnc(N)c12 [Example 17] has pIC50 of > 5.00

Per the record, Cc1ccc(OCc2ccccc2)cc1OCc1nn(C)c2ncnc(N)c12 [Example 15] has pIC50 of > 5.00

Entry source: patent US7968554B2
